Source of measurements: patent US20100286215A1

target: Recombinant human LTC4 synthase (Homo sapiens); construct: made in house; host or cells: Pichia pastoris ('Piccia pastoralis' [sic]); assay: LTC4 synthase assay (conversion of LTA4 methyl ester to LTC4 methyl ester, HPLC); assay type: biochemical; settings: inhibitor concentration 10 μM; read-out: Percantage Inhibition at 10 μM (unless specified otherwise)
Sequence (Q16873 whole entry): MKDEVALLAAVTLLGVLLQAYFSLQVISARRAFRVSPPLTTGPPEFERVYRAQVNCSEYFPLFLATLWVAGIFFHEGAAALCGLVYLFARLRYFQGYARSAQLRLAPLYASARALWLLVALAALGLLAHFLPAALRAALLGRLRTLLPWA
observable: inhibition at 10 µM (%)

# compound, output_unit, inhibition at 10 µM
rows = [
    ("CN(c1ccc(Cl)cc1)c1ccc(C(=O)c2ccc(Oc3ccccc3OC(F)(F)C(F)F)c(C(=O)O)c2)cc1 [6:8]", "%", 98),
    ("O=C(c1ccc(NS(=O)(=O)c2ccc(Cl)cc2)cc1)c1ccc(NC(=O)c2cccc(Cl)c2Cl)c(C(=O)O)c1 [7:10]", "%", 99),
    ("COc1ccc(Cl)cc1S(=O)(=O)Nc1ccc(C(=O)c2ccc(NC(=O)c3cccc(Cl)c3)cc2)cc1C(=O)O [7:3]", "%", 96),
    ("O=C(c1ccc(Nc2ccc(Cl)nc2)cc1)c1ccc(Nc2ccc(F)c(F)c2)c(C(=O)O)c1 [5:7]", "%", 90),
]
